# maps each entry to its IC50
system-tested: Aurora A (Homo sapiens)
Sequence (O14965 1-403): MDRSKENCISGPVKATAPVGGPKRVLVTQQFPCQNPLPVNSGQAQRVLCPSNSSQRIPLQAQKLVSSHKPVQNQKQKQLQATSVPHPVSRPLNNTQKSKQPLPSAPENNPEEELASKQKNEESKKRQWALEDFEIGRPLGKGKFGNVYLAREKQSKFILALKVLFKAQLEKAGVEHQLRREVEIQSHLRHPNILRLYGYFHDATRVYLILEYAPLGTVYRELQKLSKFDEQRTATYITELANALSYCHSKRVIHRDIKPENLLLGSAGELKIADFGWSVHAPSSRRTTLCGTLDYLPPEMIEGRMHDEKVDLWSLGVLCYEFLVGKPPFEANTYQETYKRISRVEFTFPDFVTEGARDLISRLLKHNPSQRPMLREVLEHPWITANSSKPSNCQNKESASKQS

Recorded IC50, per entry:
compound	IC50
COc1ccc2c(c1)[C@]1(C[C@H]1c1ccc3c(/C=C/c4ccc(C(=O)N5CCN(C)CC5)cc4)n[nH]c3c1)C(=O)N2 (relative stereo) [Example A179, 2,2,2-trifluoroacetate]	< 100 nM
COc1ccc2c(c1)[C@]1(C[C@H]1c1ccc3c(/C=C/c4cccc(CN(C)C)c4)n[nH]c3c1)C(=O)N2 [Example A134, 2,2,2-trifluoroacetate]	100 to 1000 nM
CN1CCN(c2ccc(-c3n[nH]c4cc([C@@H]5C[C@@]56C(=O)Nc5ccccc56)ccc34)cn2)CC1 (racemic) [Example A18]	100 to 1000 nM
COCCN1C(=O)[C@@]2(C[C@H]2c2ccc3c(/C=C/c4ccc(CN(C)C)cc4)n[nH]c3c2)c2ccccc21 (relative stereo) [Example A180, 2,2,2-trifluoroacetate]	< 100 nM

Ask | Given COc1ccc2c(c1)[C@]1(C[C@H]1c1ccc3c(/C=C/c4cccc(CN5CCOCC5)c4)n[nH]c3c1)C(=O)N2 [Example A132, 2,2,2-trifluoroacetate] , respond with its IC50.
Reply | 100 to 1000 nM
